Parameter IC50: see the listing below.
- System: 293T-HRE-GFP-luc cells
- ASSAY PROCEDURE: Cell-based reporter assay for IC50 determinations
- CONDITION CONTEXT: hypoxia 6 hrs (1% O2), luminescence, read-out: IC50 Classification

# MOLECULE SMILES, TESTED SYSTEM, IC50
records = [
    ("Cc1nc(-c2nc(-c3ccc(OC(F)(F)F)cc3)no2)nn1Cc1ccc(S(N)(=O)=O)cc1", "293T-HRE-GFP-luc cells", "100 to 1000 nM"),
    ("Cc1nc(-c2nc(-c3ccc(OC(F)(F)F)cc3)no2)nn1Cc1cccc(N2CCNCC2)c1", "293T-HRE-GFP-luc cells", "< 100 nM"),
    ("Cc1nc(-c2nc(-c3ccc(OC(F)(F)F)cc3)no2)nn1Cc1ccc(S(C)(=O)=O)cc1", "293T-HRE-GFP-luc cells", "100 to 1000 nM"),
    ("Cc1nc(-c2nc(-c3ccc(OC(F)(F)F)cc3)no2)nn1Cc1cn2ccccc2n1", "293T-HRE-GFP-luc cells", "100 to 1000 nM"),
    ("Cc1nc(-c2noc(-c3ccc(C(C)(C)C)cc3)n2)nn1Cc1cccc(N2CCN(C)CC2)c1", "293T-HRE-GFP-luc cells", "< 100 nM"),
    ("COC(=O)c1cccc(Cn2nc(-c3nc(-c4ccc(OC(F)(F)F)cc4)no3)nc2C)c1", "293T-HRE-GFP-luc cells", "< 100 nM"),
    ("Cc1nc(-c2ncc(-c3ccc(OC(F)(F)F)cc3)o2)nn1Cc1cccc(O)c1", "293T-HRE-GFP-luc cells", "1000 to 10000 nM"),
    ("Cc1nc(-c2ncc(-c3ccc(OC(F)(F)F)cc3)o2)nn1Cc1ccnc(N2CCOCC2)c1", "293T-HRE-GFP-luc cells", "100 to 1000 nM"),
]

----------
- Tested on: 293T-HRE-GFP-luc cells
- ASSAY PROCEDURE: Cell-based reporter assay for IC50 determinations
- CONDITION CONTEXT: hypoxia 6 hrs (1% O2), luminescence, read-out: IC50 Classification
MEASURED METRIC: IC50

# COMPOUND, DATA VALUE
records = [
    ("Cc1nc(-c2nc(-c3ccc(OC(F)(F)F)cc3)no2)nn1Cc1cccc(OCCO)c1", "< 100 nM"),
    ("Cc1nc(-c2nc(-c3ccc(OC(F)(F)F)cc3)no2)nn1Cc1cccc(OCC#N)c1", "100 to 1000 nM"),
    ("Cc1nc(-c2nc(-c3ccc(OC(F)(F)F)cc3)no2)nn1Cc1cccc(C(=O)N2CC(O)C2)c1", "< 100 nM"),
    ("Cc1nc(-c2nc(-c3ccc(OC(F)(F)F)cc3)no2)nn1Cc1ccc(OCC(C)C)nc1 [Example 77b]", "100 to 1000 nM"),
]

----------
- System: 293T-HRE-GFP-luc cells
- ASSAY PROCEDURE: Cell-based reporter assay for IC50 determinations
- CONDITION CONTEXT: hypoxia 6 hrs (1% O2), luminescence, read-out: IC50 Classification

# COMPOUND, IC50
records = [
    ("Cc1nc(-c2ncc(-c3ccc(OC(F)(F)F)cc3)o2)nn1Cc1ccnc(N2CCN(C)CC2)c1 [Example 92]", "< 100 nM"),
    ("Cc1nc(-c2nc(-c3ccc(S(C)(=O)=O)cc3)no2)nn1Cc1ccnc(N2CCN(C)CC2)c1 [Example 21, bis-trifluoroacetate]", "1000 to 10000 nM"),
    ("Cc1nc(-c2nc(-c3ccc(OC(F)(F)F)cc3)cs2)nn1Cc1cccc(C(=O)N(C)C)c1 [Example 89]", "100 to 1000 nM"),
    ("Cc1nc(-c2nc(-c3ccc(OC(F)(F)F)cc3)no2)nn1Cc1cncnc1 [Example 99]", "1000 to 10000 nM"),
    ("Cc1nc(-c2nc(-c3ccc(OC(F)(F)F)cc3)no2)nn1Cc1cccc(C(=O)NC2CC2)c1 [Example 124]", "< 100 nM"),
    ("Cc1ccc(Cn2nc(-c3nc(-c4ccc(OC(F)(F)F)cc4)cs3)nc2C)cc1 [Example 149]", "< 100 nM"),
    ("CC(=O)N1CCN(c2cc(Cn3nc(-c4nc(-c5ccc(OC(F)(F)F)cc5)no4)nc3C)ccn2)CC1 [Example 38]", "< 100 nM"),
]

----------
- Test system: 293T-HRE-GFP-luc cells
- ASSAY PROCEDURE: Cell-based reporter assay for IC50 determinations
- CONDITION CONTEXT: hypoxia 6 hrs (1% O2), luminescence, read-out: IC50 Classification
- Method: Cell-Based Reporter Assay for IC50 Determinations […] In preparation for the reporter assay, cells were harvested and resuspended in DMEM media (high glucose version with GlutaMAX and HEPES) supplemented with 10% fetal bovine serum. […] Steadylite Plus (Perkin Elmer, catalog #6016751) was then added (40 μL/well), the plates were mixed on an orbital shaker at room temperature in the dark for 15 min., and luminescence was measured using an Envision plate reader (Perkin Elmer). […]
pIC50: −log10 of the molar value.
Reported pIC50 values for a set of molecules

# MOLECULE, pIC50
measured = [
    ("Cc1nc(-c2nc(-c3ccc(OC(F)(F)F)cc3)no2)nn1Cc1cccc(OCCC(C)(C)O)c1", "> 7.00"),
    ("Cc1nc(-c2nc(-c3ccc(OC(F)(F)F)cc3)no2)nn1Cc1ccnc(OCC(C)C)c1 [Example 76b]", "6.00 to 7.00"),
    ("C=Cc1cccc(Cn2nc(-c3nc(-c4ccc(OC(F)(F)F)cc4)no3)nc2C)c1", "6.00 to 7.00"),
    ("Cc1nc(-c2ncc(-c3ccc(OC(F)(F)F)cc3)o2)nn1Cc1cccc(N2CCN(C)CC2)c1", "> 7.00"),
    ("Cc1nc(-c2nc(-c3ccc(OC(F)(F)F)cc3)no2)nn1Cc1cccc(N2CCNC(=O)C2)c1", "> 7.00"),
    ("Cc1nc(-c2cc(-c3ccc(OC(F)(F)F)cc3)no2)nn1Cc1cccc(N2CCC(S(C)(=O)=O)CC2)c1", "> 7.00"),
    ("Cc1nc(-c2ncc(-c3ccc(OC(F)(F)F)cc3)o2)nn1Cc1cccc(S(C)(=O)=O)c1", "6.00 to 7.00"),
    ("Cc1nc(-c2nc(-c3ccc(OC(F)(F)F)cc3)no2)nn1Cc1cccc(S(=O)(=O)NCCO)c1", "> 7.00"),
    ("COC(=O)[C@@H](NS(=O)(=O)c1cccc(Cn2nc(-c3nc(-c4ccc(OC(F)(F)F)cc4)no3)nc2C)c1)C(C)C", "6.00 to 7.00"),
    ("Cc1nc(-c2nc(-c3ccc(OC(F)(F)F)cc3)no2)nn1Cc1cccc2c1cnn2C", "6.00 to 7.00"),
    ("Cc1nc(-c2nc(-c3ccc(OC(F)(F)F)cc3)no2)nn1Cc1ccc2c(c1)OCO2", "6.00 to 7.00"),
    ("Cc1nc(-c2nc(-c3ccc(OC(F)(F)F)cc3)no2)nn1Cc1cccc(N(C)C)c1", "> 7.00"),
    ("Cc1nc(-c2cc(-c3ccc(OC(F)(F)F)cc3)on2)nn1Cc1ccnc(N2CCC(S(C)(=O)=O)CC2)c1", "6.00 to 7.00"),
    ("CCOc1cccc(Cn2nc(-c3nc(-c4ccc(OC(F)(F)F)cc4)no3)nc2C)c1", "> 7.00"),
    ("Cc1nc(-c2nc(-c3ccc(OC(F)(F)F)cc3)no2)nn1Cc1ccnc(N(C)C)c1", "> 7.00"),
]

----------
- Tested on: 293T-HRE-GFP-luc cells
- ASSAY PROCEDURE: Cell-based reporter assay for IC50 determinations
- CONDITION CONTEXT: hypoxia 6 hrs (1% O2), luminescence, read-out: IC50 Classification
pIC50: −log10 of the molar value.
MEASURED METRIC: pIC50

# COMPOUND, MEASURED METRIC, DATA VALUE
rows = [
    ("Cc1nc(-c2nc(-c3ccc(OC(F)(F)F)cc3)no2)nn1Cc1cccc(OC(F)F)c1 [Example 103]", "pIC50", "6.00 to 7.00"),
    ("Cc1cc(Cn2nc(-c3nc(-c4ccc(OC(F)(F)F)cc4)no3)nc2C)n(C)n1 [Example 48]", "pIC50", "6.00 to 7.00"),
    ("Cc1nc(-c2nc(-c3ccc(OC(F)(F)F)cc3)no2)nn1Cc1ccnc(N2CCOCC2)c1 [Example 10]", "pIC50", "> 7.00"),
    ("Cc1nc(-c2cc(-c3ccc(OC(F)(F)F)cc3)on2)nn1Cc1cccc(N2CCN(C)CC2)c1 [Example 162]", "pIC50", "> 7.00"),
    ("Cc1nc(-c2noc(-c3ccc(OC(F)(F)F)cc3)n2)nn1Cc1cccc(N(C)C)c1 [Example 58]", "pIC50", "6.00 to 7.00"),
    ("Cc1nc(-c2cc(-c3ccc(OC(F)(F)F)cc3)no2)nn1Cc1cccc(N2CCN(C)CC2)c1 [Example 160]", "pIC50", "> 7.00"),
    ("Cc1nc(-c2nc(-c3ccc(OC(F)(F)F)cc3)no2)nn1Cc1ccc2ccccc2n1 [Example 113]", "pIC50", "> 7.00"),
    ("COc1cccc(Cn2nc(-c3nc(-c4ccc(OC(F)(F)F)cc4)no3)nc2C)c1 [Example 101]", "pIC50", "6.00 to 7.00"),
]

Data credit: patent US10208059B2
